System: Pseudomonas aeruginosa
protocol summary: Antimicrobial activity against Pseudomonas aeruginosa 2F6 tracheal isolates from mechanically ventilated tuberculosis patient
Format: functional, organism-based
assay setup: Trachea
Calls of active or inactive are those of the source. The calls are words filed in the database; no cut-off is given here.
Answer with one of the outcomes given here: label 1 = active, label 0 = inactive

C[C@@H](O)[C@H]1C(=O)N2C(C(=O)O)=C(S[C@@H]3CN[C@H](C(=O)N(C)C)C3)[C@H](C)[C@H]12: label 0

query: For `NCC[C@H](O)C(=O)N[C@@H]1C[C@H](N)[C@@H](O[C@H]2O[C@H](CN)[C@@H](O)[C@H](O)[C@H]2O)[C@H](O)[C@H]1O[C@H]1O[C@H](CO)[C@@H](O)[C@H](N)[C@H]1O` , what call appears in the results of this test?
result: label 0

query: Could you do the same for `CCN[C@@H]1C[C@H](N)[C@@H](O[C@H]2OC(CN)=CC[C@H]2N)[C@H](O)[C@H]1O[C@H]1OC[C@](C)(O)[C@H](NC)[C@H]1O` , please?
result: label 0

query: Could you do the same for `CC(C)(O/N=C(\C(=O)N[C@@H]1C(=O)N2C(C(=O)[O-])=C(C[n+]3ccccc3)CS[C@H]12)c1csc(N)n1)C(=O)O` , please?
result: label 0

query: Could you do the same for `CCn1cc(C(=O)O)c(=O)c2cc(F)c(N3CCNCC3)cc21` , please?
result: label 1

query: Could you do the same for `O=C(O)c1cn(C2CC2)c2cc(N3CCNCC3)c(F)cc2c1=O` , please?
result: label 1

query: Could you do the same for `CO/N=C(\C(=O)N[C@@H]1C(=O)N2C(C(=O)[O-])=C(C[N+]3(C)CCCC3)CS[C@H]12)c1csc(N)n1` , please?
result: label 0

query: Could you do the same for `CCN1CCN(C(=O)N[C@@H](C(=O)N[C@@H]2C(=O)N3[C@@H]2SC(C)(C)[C@@H]3C(=O)O)c2ccccc2)C(=O)C1=O` , please?
result: label 0

query: Could you do the same for `NC[C@H]1O[C@H](O[C@H]2[C@H](O)[C@@H](O[C@H]3O[C@H](CO)[C@@H](O)[C@H](N)[C@H]3O)[C@H](N)C[C@@H]2N)[C@H](N)C[C@@H]1O` , please?
result: label 1

query: Could you do the same for `C[C@@H](O)[C@H]1C(=O)N2C(C(=O)O)=C(SCCNC=N)C[C@H]12` , please?
result: label 0

query: Could you do the same for `C[C@H]1[C@H](NC(=O)/C(=N\OC(C)(C)C(=O)O)c2csc(N)n2)C(=O)N1S(=O)(=O)O` , please?
result: label 0

---

Tested on: Pseudomonas aeruginosa
protocol summary: Antimicrobial activity against Pseudomonas aeruginosa 2A3 tracheal isolates from mechanically ventilated tuberculosis patient
Assay type: functional, organism-based
assay setup: Trachea
Active and inactive are the calls of the source. No cut-off for these calls is given here.
Answer with one of the outcomes given here: 1.0 (active), 0.0 (inactive)

Look over these answered cases.
O=C(O)c1cn(C2CC2)c2cc(N3CCNCC3)c(F)cc2c1=O: 1.0
CCN1CCN(C(=O)N[C@@H](C(=O)N[C@@H]2C(=O)N3[C@@H]2SC(C)(C)[C@@H]3C(=O)O)c2ccccc2)C(=O)C1=O: 1.0

query: For `CO/N=C(\C(=O)N[C@@H]1C(=O)N2C(C(=O)[O-])=C(C[N+]3(C)CCCC3)CS[C@H]12)c1csc(N)n1` , what call appears in the results of this test?
result: 1.0

query: Could you do the same for `CCn1cc(C(=O)O)c(=O)c2cc(F)c(N3CCNCC3)cc21` , please?
result: 1.0
